Data origin: ChEMBL document CHEMBL1201862

Listed here are compounds together with their documented GI50.
tested on: CAKI-1; test: NCI tumour cell line growth inhibition, 48 h
Activity calls are given as the source filed them. No stated cut-off is given here; in the data, active = GI50 up to about 1.1 µM and inactive = higher.

{"columns": ["compound", "assayed-system", "measured-quantity", "recorded-result"],
 "data": [
  ["CCN(CC)Cc1cc(Nc2ccnc3ccc4nn(C)nc4c23)ccc1O", "CAKI-1", "GI50", "28.8 µM (inactive)"],
  ["[N-]=[N+]=NC1=C(c2ccccn2)C(=O)c2cccc3cccc1c23", "CAKI-1", "GI50", "26.7 µM (inactive)"],
  ["COc1cc(C(CC(OC)OC)=C(C#N)C#N)cc(OC)c1OC", "CAKI-1", "GI50", "34.3 µM (inactive)"],
  ["COc1ccc2c(CCNC(=O)/C=C/c3ccccc3)c(C(C)=O)[nH]c2c1[N+](=O)[O-]", "CAKI-1", "GI50", "5.28 µM (inactive)"],
  ["CC1=C(C(=O)Nc2ccccc2)C(c2ccc(C)o2)C(C#N)=C(SCc2ccccc2)N1 (stereo not given)", "CAKI-1", "GI50", "> 100 µM (inactive)"],
  ["CCOC(=O)/C(=N\\OC)C(O)C(F)(F)F (stereo not given)", "CAKI-1", "GI50", "> 100 µM (inactive)"],
  ["CC(=O)c1c2c(cc3c1CC1(Cc4ccccc4C1=O)C3)CCC2 (stereo not given)", "CAKI-1", "GI50", "8.55 µM (inactive)"],
  ["O=C1C=C(Nc2nc(O)cc(C(=O)O)n2)c2ccccc2C1=O", "CAKI-1", "GI50", "> 100 µM (inactive)"]
]}

### Prompt Value lookup for GI50; key = CCOC(=O)/C(=C\c1ccc(N(C)C)cc1)S(=O)(=O)C(F)(F)C(F)(F)C(F)(F)C(F)(F)F
### Response > 100 µM (inactive)

### Prompt Repeat with Clc1ccc(OCc2nnc(CCCCCCCCc3nnc(COc4ccc(Cl)cc4)o3)o2)cc1
### Response 39.7 µM (inactive)

====

GI50 overview
system: HCC 2998; assay: NCI tumour cell line growth inhibition, 48 h
Active and inactive are the calls of the source. Rule as the data show it: active = GI50 up to about 1.1 µM and inactive = higher.

### Prompt What measured GI50 goes with COC1CC(OC2C(C)OC(OC3C(C)OC(OC4C(C)OC(O[C@H]5CC[C@@]6(C)C(=CC[C@]7(O)[C@@H]6C[C@@H](OC(=O)/C=C/c6ccccc6)[C@@]6(C)[C@]7(O)CC[C@@]6(O)C(C)=O)C5)CC4OC)CC3OC)CC2OC)OC(C)C1O (some centres undefined) ?
### Response > 12.5 µM (inactive)

### Prompt Also need COc1cc(C(CC(OC)OC)=C(C#N)C#N)cc(OC)c1OC , thanks.
### Response 18.7 µM (inactive)

### Prompt Also N#C/C(=C/c1ccsc1)C(=O)c1ccccc1 ?
### Response > 100 µM (inactive)

### Prompt Next entry: O=C(O)/C=N/NC(=S)NC1CCCCC1
### Response > 100 µM (inactive)

====

system: M14; test: NCI tumour cell line growth inhibition, 48 h
Active and inactive are the calls of the source. Cut-off read from the data, not from the text of the source: active = GI50 up to about 1.1 µM and inactive = higher.
Your answer must be one of the following: class 1 = active, class 0 = inactive

{"columns": ["compound", "group-label"],
 "data": [
  ["CCOC(=O)C1(CC)CCCCC(=O)N1 (centres undefined)", "class 0"],
  ["CC1=C(Br)C(=O)C(C)=C(Br)C1=O.Cc1c(O)c(Br)c(C)c(O)c1Br", "class 0"],
  ["C/C(=C\\c1csc(C)n1)[C@@H]1C[C@@H]2O[C@@H]2CCC[C@H](C)[C@H](O)[C@@H](C)C(=O)C(C)(C)[C@@H](O)CC(=O)O1", "class 1"],
  ["O=C(OCCN=c1c2ccccc2ccc2ccccc12)c1ccccc1", "class 0"],
  ["C=CC1=CSNN1", "class 0"],
  ["C=Cc1ccc(C)[n+](C[Si](C)(C)O[Si](C)(C)C)c1", "class 0"],
  ["Nc1cccc(CCN2CCN(CCCc3ccccc3)CC2)c1", "class 0"],
  ["CC(C)=c1sc(=C(C)C)c2c1=NC(C)(C)N=2", "class 0"]
]}

### Prompt Dear colleague, could you share the recorded outcome for O=C1C=CC(=O)c2c1ccc1c3ccccc3n(-c3ccccn3)c21 when you have a moment?
### Response class 0

### Prompt Try the compound CC(=O)NC1C(OCc2ccccc2)OC(CO)C(O)C1OC(C)C(=O)NC(C(=O)NC(CCC(=O)Nc1ccc2c(c1)CN1C(=O)c3ccccc3C1=N2)C(N)=O)C(C)C (centres undefined)
### Response class 0

### Prompt # iterate: C=C(C(=O)OC)N1C(=O)CC(C)C1=O (centres undefined)
### Response class 0

### Prompt Now this one: NC(=O)c1cnc2sc3ccccc3n2c1=O
### Response class 0

### Prompt Thanks! And C/C1=C\[C@H](C)C[C@H](C)OC(=O)C[C@H](c2ccc(O)cc2)NC(=O)[C@@H](Cc2c(Br)[nH]c3ccccc23)N(C)C(=O)[C@H](C)NC(=O)[C@@H](C)C1 [JASPAMIDE] ?
### Response class 1

### Prompt Repeat for the following compound: Clc1cccc(Cl)c1C1ON=C(c2ccccc2)N1C12CC3CC(CC(C3)C1)C2 (centres undefined)
### Response class 0

### Prompt What do you get for COc1ccc(CC2c3cc(OC)c(OC)c(OC)c3CC[N+]2(C)C)cc1Oc1ccc(CC2c3cc4c(c(OC)c3CCN2C)OCO4)cc1 (centres undefined) ?
### Response class 0

### Prompt Same again, this time with C/C(CC(=O)Nc1cc(Cl)c(Cl)cc1Cl)=N\NS(=O)(=O)c1ccc(C)cc1
### Response class 0
